Reference for the values: PubChem BioAssay (NCI)

Tested on: MDA-MB-468 breast
assay_overview: NCI tumour cell line growth inhibition, 48 h; in the data active = GI50 below about 0.43 µM; inactive = the rest
Pick one: true (1) (active), false (0) (inactive)

Use the examples below as a reference point.
>  <compound>
CN1CCN(c2ccc(NC3=C(Cl)C(=O)c4ncccc4C3=O)cc2C#N)CC1

>  <group>
true (1)

$$$$
>  <compound>
CCO/C=N/C1=C(C#N)C(c2ccc(F)cc2)c2sc3c(C)cccc3c2O1 (centres undefined)

>  <group>
false (0)

$$$$
>  <compound>
COc1cc(C2=NN(c3ccc(S(N)(=O)=O)cc3)C(c3ccc(Cl)cc3)C2)cc(OC)c1OC (centres undefined)

>  <group>
false (0)

$$$$
>  <compound>
Cc1ccc2c(c1)O/C(=C\c1ccc([N+](=O)[O-])o1)C2=O

>  <group>
false (0)

$$$$
>  <compound>
[C-]#[N+][C@]12C(=O)[C@H](CCC1(C)C)C(C)(C)[C@H]1C(=O)N(C)c3cccc2c31

>  <group>
false (0)

$$$$

Please let me know the test result on file for COc1ccc(/C=C/C(=O)c2cc3c(N)c(C(=O)Nc4ccccc4C)sc3nc2C)cc1 .
true (1)

Please let me know the test result on file for C/C1=C/C(=O)O[C@@H]2C[C@@H](CC[C@H](C)/C=C\C=C\CC1)O[C@@](OCCc1ccccc1)([C@@H]1CSC(=O)N1)C2 .
true (1)

Please let me know the test result on file for Cc1nc2cc(Nc3nc(Nc4ccc(F)cc4)nc(N4CCN(C)CC4)n3)ccc2n1Cc1ccccc1 .
false (0)

Please let me know the test result on file for NC(=S)N/N=C\c1nccc2c(N)cccc12 .
true (1)
